tested on: A. fumigatus 210; assay: Minimum inhibitory concentration, YAG medium; format: cell-based, Aspergillus fumigatus; settings: banded MIC grade
Provide the recorded MIC grade, A. FUMIGATUS 210, YAG media for the entries that follow.

Known results for compounds:
Prompt line: # get_value(readout='MIC grade, A. FUMIGATUS 210, YAG media', item= "NC1=NN=C(CCCCOCc2cccc(Cl)c2)CS1" )
Response line: 4 (4: <0.2 mg/L)

Prompt line: # get_value(readout='MIC grade, A. FUMIGATUS 210, YAG media', item= "NC1=NN=C(CCCCOCc2cccc(-c3ccccc3)c2)CS1" )
Response line: 1 (1: ≥5 mg/L)

Prompt line: # get_value(readout='MIC grade, A. FUMIGATUS 210, YAG media', item= "NC1=NN=C(CCOc2ccc(-c3ccccc3)cc2)CS1" )
Response line: 1 (1: ≥5 mg/L)

Prompt line: # get_value(readout='MIC grade, A. FUMIGATUS 210, YAG media', item= "COCC1=NN=C(N)SC1" )
Response line: 2 (2: 1-5 mg/L)

The following compounds each have a reported value; give each one's MIC grade, A. FUMIGATUS 210, YAG media.
1. NC1=NN=C(CCOCc2ccccc2)CS1
2. NC1=NN=C(CCCCOCc2cc(Cl)cc(Cl)c2)CS1
3. CCCCCOc1ccc(CCC2=NN=C(N)SC2)cc1

Response line:
1: 2 (2: 1-5 mg/L); 2: 2 (2: 1-5 mg/L); 3: 1 (1: ≥5 mg/L)
